Hello, the source for this data is paper PMC7261172, in case you need it.

Target: E.coli β-clamp (Escherichia coli, UniProt P0A988)
Construct: made in house
Sequence (P0A988 whole entry): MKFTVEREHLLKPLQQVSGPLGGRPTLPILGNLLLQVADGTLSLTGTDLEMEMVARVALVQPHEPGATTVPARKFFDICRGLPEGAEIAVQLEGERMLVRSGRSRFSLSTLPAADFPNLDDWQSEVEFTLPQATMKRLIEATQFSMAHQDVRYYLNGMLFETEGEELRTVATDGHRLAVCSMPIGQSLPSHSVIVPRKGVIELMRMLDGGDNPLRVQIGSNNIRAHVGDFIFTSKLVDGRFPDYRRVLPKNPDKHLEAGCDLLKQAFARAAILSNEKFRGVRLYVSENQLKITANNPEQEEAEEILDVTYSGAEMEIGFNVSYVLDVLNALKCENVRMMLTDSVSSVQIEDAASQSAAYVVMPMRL
Assay: Microscale thermophoresis (MST) β-clamp binding
Conditions: cell penetrating peptides; MST buffer with 2% fetal bovine serum; initial in vitro binding experiments, bounds given; read-out: KD for the β-clamp (MST)
pKd: −log10 of the molar value.
PARAMETER: pKd

Give reported pKd value for Ac-MDRALVKWKKKRKIRRRRRRRRRRR-NH2 [RALVK] < 3.12

---

Test system: E. coli BL21
Format: cell-based, Escherichia coli
Details: Mueller-Hinton Broth, 5 × 10^5 CFU/ml, 24 h, 37°C; average of ≥3 independent biological experiments
PARAMETER: Minimal Inhibitory Concentration (MIC) E. coli BL21 (µM)
Numbers only; they are read as µM.

As a guide, the following entries are already answered.
Ac-MDRWLKWKKKRKIRRRRRRRRRRR-NH2 [RWLK]: 6
Ac-MDRWLVKWKKKRKIRRRRRRRRRRR-NH2 [RWLVK]: 5
Ac-MDRALVKWKKKRKIRRRRRRRRRRR-NH2 [RALVK]: 5

Let us examine a further case.
Answer with reported Minimal Inhibitory Concentration (MIC) E. coli BL21 of Ac-MDRFSLKWKKKRKIRRRRRRRRRRR-NH2 [RFSLK] 4
